molecular target: TACR2 (Homo sapiens, UniProt P21452); construct: purchased Promega (in-house HiBiT-GPCR construct library, NanoBRET); assay: NanoBRET screen HiBiT-TACR2 in HEK293; type: binding; conditions: TACR2; tracer 0.1μM
Sequence (P21452 whole entry): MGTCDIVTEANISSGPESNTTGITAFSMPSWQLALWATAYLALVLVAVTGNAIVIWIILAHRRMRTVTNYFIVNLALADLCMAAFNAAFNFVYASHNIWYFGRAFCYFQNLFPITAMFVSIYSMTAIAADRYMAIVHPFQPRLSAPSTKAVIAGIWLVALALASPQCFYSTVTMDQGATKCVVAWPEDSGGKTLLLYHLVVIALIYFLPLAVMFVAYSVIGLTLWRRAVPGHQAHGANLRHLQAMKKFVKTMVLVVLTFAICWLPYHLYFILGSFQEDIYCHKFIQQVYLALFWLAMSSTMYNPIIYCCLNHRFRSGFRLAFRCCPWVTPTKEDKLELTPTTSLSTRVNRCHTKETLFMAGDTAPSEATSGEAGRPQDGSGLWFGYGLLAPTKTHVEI
Is NanoBRET Fold Response at least 1? Then MET. If not, NOT MET.

A selection of reference data follows.
Compound	Group Label
CCCn1c(=O)c2[nH]c(-c3ccc(OCC(=O)NCCNC(=O)CCOCCNC(=O)c4ccc(CNC(=O)CCc5ccc6n5[B-](F)(F)[N+]5=C(c7ccc[nH]7)C=CC5=C6)cc4)cc3)nc2n(CCC)c1=O	NOT MET
CC(C)N(CC[C@H](c1ccccc1)c1cc(CCNC(=O)c2ccc(CNC(=O)CCc3ccc4n3[B-](F)(F)[N+]3=C(c5ccc[nH]5)C=CC3=C4)cc2)ccc1O)C(C)C	MET
COc1ccccc1N1CCN(CCCCN2C(=O)c3ccc(CNC(=O)CCOCCOCCOCCOCCNC(=O)CCc4ccc5n4[B-](F)(F)[N+]4=C(c6ccc[nH]6)C=CC4=C5)cc3C2=O)CC1	NOT MET
COc1ccccc1N1CCN(CCCCN2C(=O)c3ccc(CNC(=O)CCOCCNC(=O)c4ccc(CNC(=O)CCc5ccc6n5[B-](F)(F)[N+]5=C(c7ccc[nH]7)C=CC5=C6)cc4)cc3C2=O)CC1	MET
O=C(CCc1ccc2n1[B-](F)(F)[N+]1=C(c3ccc[nH]3)C=CC1=C2)NCCOCCOCCNC(=O)OCCOCCN1CCN(C2=Nc3ccccc3Sc3ccccc32)CC1	MET

stdin: Is NanoBRET Fold Response for Cc1nc2n(c(=O)c1CCN1CCC(c3noc4cc(F)ccc34)CC1)CCCC2OC(=O)NCCOCCOCCOCCOCCNC(=O)CCc1ccc2n1[B-](F)(F)[N+]1=C(c3ccc[nH]3)C=CC1=C2 (centres unmarked) at or above 1?
stdout: MET

stdin: Is NanoBRET Fold Response for CC(C)N(CC[C@H](c1ccccc1)c1cc(CCNC(=O)CCOCCOCCOCCOCCNC(=O)CCc2ccc3n2[B-](F)(F)[N+]2=C(c4ccc[nH]4)C=CC2=C3)ccc1O)C(C)C at or above 1?
stdout: NOT MET

stdin: Is NanoBRET Fold Response for O=C(CCc1ccc2n1[B-](F)(F)[N+]1=C(c3ccc[nH]3)C=CC1=C2)NCc1ccc(C(=O)NCCOCCC(=O)N[C@@H]2CC[C@@]3(O)[C@H]4Cc5ccc(O)c6c5[C@@]3(CCN4CC3CC3)[C@H]2O6)cc1 [Naltrexone-3-NB590] at or above 1?
stdout: NOT MET

stdin: Is NanoBRET Fold Response for O=C(CCOCCOCCOCCOCCNC(=O)CCc1ccc2n1[B-](F)(F)[N+]1=C(c3ccc[nH]3)C=CC1=C2)NCCCN1CCN(C2=Nc3ccccc3Oc3ccc(Cl)cc32)CC1 at or above 1?
stdout: NOT MET

* * *

Reported NanoBRET Fold Response by item:
Molecular target: F2RL2 (Homo sapiens)
Construct: purchased Promega (in-house HiBiT-GPCR construct library, NanoBRET)
Sequence (O00254 22-374): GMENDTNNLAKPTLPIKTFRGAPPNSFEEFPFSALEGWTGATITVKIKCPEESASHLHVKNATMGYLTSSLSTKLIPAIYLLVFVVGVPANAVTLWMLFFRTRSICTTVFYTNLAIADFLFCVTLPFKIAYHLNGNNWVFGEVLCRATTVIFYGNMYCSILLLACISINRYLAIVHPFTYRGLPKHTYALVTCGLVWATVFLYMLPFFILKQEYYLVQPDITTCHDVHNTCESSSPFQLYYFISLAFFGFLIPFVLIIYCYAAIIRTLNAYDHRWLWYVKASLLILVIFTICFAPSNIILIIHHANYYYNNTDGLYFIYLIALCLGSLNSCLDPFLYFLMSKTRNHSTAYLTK
Test: NanoBRET screen HiBiT-F2RL2 in HEK293
Assay type: binding
Details: F2RL2; tracer 1μM
// no unit, no text: just the number

Compound	NanoBRET Fold Response
COc1ccccc1N1CCN(CCCCN2C(=O)c3ccc(CNC(=O)CCOCCNC(=O)c4ccc(CNC(=O)CCc5ccc6n5[B-](F)(F)[N+]5=C(c7ccc[nH]7)C=CC5=C6)cc4)cc3C2=O)CC1	0.95

response.value for Cc1nc2n(c(=O)c1CCN1CCC(c3noc4cc(F)ccc34)CC1)CCCC2OC(=O)NCCOCCOCCOCCOCCNC(=O)CCc1ccc2n1[B-](F)(F)[N+]1=C(c3ccc[nH]3)C=CC1=C2 (stereo not drawn) (field: NanoBRET Fold Response) = 1.08

response.value for CC(C)N(CC[C@H](c1ccccc1)c1cc(CCNC(=O)CCOCCOCCOCCOCCNC(=O)CCc2ccc3n2[B-](F)(F)[N+]2=C(c4ccc[nH]4)C=CC2=C3)ccc1O)C(C)C (field: NanoBRET Fold Response) = 1.04

response.value for O=C(CCOCCOCCOCCOCCNC(=O)CCc1ccc2n1[B-](F)(F)[N+]1=C(c3ccc[nH]3)C=CC1=C2)NCCCN1CCN(C2=Nc3ccccc3Oc3ccc(Cl)cc32)CC1 (field: NanoBRET Fold Response) = 1.12

response.value for O=C(CCc1ccc2n1[B-](F)(F)[N+]1=C(c3ccc[nH]3)C=CC1=C2)NCCOCCOCCNC(=O)OCCOCCN1CCN(C2=Nc3ccccc3Sc3ccccc32)CC1 (field: NanoBRET Fold Response) = 0.89

response.value for N#CN=C(NCCCOc1cccc(CN2CCCCC2)c1)NCCNC(=O)CCOCCOCCOCCOCCNC(=O)CCc1ccc2n1[B-](F)(F)[N+]1=C(c3ccc[nH]3)C=CC1=C2 (field: NanoBRET Fold Response) = 1.02
